We begin with a simple list: items and their reported Displacement.
target: GABA-A receptor; anion channel (Rattus norvegicus) (UniProt O09028+P15431+P18506+P18508+P19969+P20236+P23574+P23576+P28471+P28473+P30191+P62813+P63079+P63138+Q91ZM7+Q9ES14); test: In vitro displacement of [35S]TBPS from Gamma-aminobutyric acid A receptor of rat brain membranes; type: cell membranes; design: concentration or dose not given beside the values; conditions: Membrane

{"COMPOUND": "Cc1ccc(S(=O)(=O)N2CCc3ccccc3[C@@H]2[C@H]2CCC(=O)O2)cc1 (racemic)", "UNIT_TAG": "%", "Displacement": 15}
{"COMPOUND": "CN(C)S(=O)(=O)N1CCc2ccccc2[C@@H]1[C@H]1CCC(=O)O1", "UNIT_TAG": "%", "Displacement": 0}
{"COMPOUND": "O=C1CC[C@H]([C@H]2c3ccccc3CCN2S(=O)(=O)c2ccc(C(F)(F)F)cc2)O1", "UNIT_TAG": "%", "Displacement": 0}
{"COMPOUND": "O=C1CC[C@H]([C@H]2c3ccccc3CCN2S(=O)(=O)c2ccc(Cl)cc2)O1 (racemic)", "UNIT_TAG": "%", "Displacement": 60}
{"COMPOUND": "O=C1CC[C@H]([C@H]2c3ccccc3CCN2S(=O)(=O)c2ccccc2)O1 (racemic)", "UNIT_TAG": "%", "Displacement": 50}
{"COMPOUND": "O=C1CC[C@H]([C@H]2c3ccccc3CCN2S(=O)(=O)c2ccc3ccccc3c2)O1", "UNIT_TAG": "%", "Displacement": 0}
{"COMPOUND": "O=C1CC[C@H]([C@H]2c3ccccc3CCN2S(=O)(=O)c2cccs2)O1", "UNIT_TAG": "%", "Displacement": 25}
{"COMPOUND": "O=C1CC[C@H]([C@H]2c3ccccc3CCN2C(=O)OCc2ccccc2)O1 (racemic)", "UNIT_TAG": "%", "Displacement": 0}
{"COMPOUND": "CS(=O)(=O)N1CCc2ccccc2[C@@H]1[C@H]1CCC(=O)O1", "UNIT_TAG": "%", "Displacement": 0}
